molecular target: GABAA receptor α1β2E155Cγ2L (β2 subunit) (Rattus norvegicus, UniProt P62813+P63138, P63138:E179C); construct: gene Gabrb2; recombinant α1β2E155Cγ2L receptor in HEK293 cells; with GABAA receptor α1 and γ2L subunits; assay: whole-cell patch-clamp dose-response (extrapolated Hill fit) and single-channel recording; assay type: cell-based
Sequence (P63138 26-474 E179C): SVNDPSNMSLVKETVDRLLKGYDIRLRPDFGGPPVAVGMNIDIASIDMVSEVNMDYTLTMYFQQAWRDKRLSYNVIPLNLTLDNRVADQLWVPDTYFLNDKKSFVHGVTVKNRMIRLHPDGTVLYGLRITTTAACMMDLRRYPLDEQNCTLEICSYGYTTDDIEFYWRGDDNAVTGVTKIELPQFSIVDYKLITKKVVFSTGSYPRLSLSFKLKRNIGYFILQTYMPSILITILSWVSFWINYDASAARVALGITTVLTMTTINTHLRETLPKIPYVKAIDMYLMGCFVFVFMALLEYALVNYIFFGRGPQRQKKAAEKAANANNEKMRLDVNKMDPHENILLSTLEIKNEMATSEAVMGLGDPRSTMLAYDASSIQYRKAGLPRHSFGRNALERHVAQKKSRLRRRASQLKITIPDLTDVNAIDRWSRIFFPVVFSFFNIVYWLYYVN
Sequence (P62813 28-455): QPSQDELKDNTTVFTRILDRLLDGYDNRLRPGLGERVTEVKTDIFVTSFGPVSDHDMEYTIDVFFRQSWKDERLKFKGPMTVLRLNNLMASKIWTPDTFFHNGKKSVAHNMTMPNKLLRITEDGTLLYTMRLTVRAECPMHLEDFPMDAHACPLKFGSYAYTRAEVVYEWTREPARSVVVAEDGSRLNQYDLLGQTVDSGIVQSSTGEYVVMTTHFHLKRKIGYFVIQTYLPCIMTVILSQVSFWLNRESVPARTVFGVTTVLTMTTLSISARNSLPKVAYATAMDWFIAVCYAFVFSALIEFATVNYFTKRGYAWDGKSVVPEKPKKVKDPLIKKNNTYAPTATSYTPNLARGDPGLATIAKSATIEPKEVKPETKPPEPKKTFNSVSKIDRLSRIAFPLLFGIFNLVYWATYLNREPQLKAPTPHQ
Sequence (P18508 39-466 partner): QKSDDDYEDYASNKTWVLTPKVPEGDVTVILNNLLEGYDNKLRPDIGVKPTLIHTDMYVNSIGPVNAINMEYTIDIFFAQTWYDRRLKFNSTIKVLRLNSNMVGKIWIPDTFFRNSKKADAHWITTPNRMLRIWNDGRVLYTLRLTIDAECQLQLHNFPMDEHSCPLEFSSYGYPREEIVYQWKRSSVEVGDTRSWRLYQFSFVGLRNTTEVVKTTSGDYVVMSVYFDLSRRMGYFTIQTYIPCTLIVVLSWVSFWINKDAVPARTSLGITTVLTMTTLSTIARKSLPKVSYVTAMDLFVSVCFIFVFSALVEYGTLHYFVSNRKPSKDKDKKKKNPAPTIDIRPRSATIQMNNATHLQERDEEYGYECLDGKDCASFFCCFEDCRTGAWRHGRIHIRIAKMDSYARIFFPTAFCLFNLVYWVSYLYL
pEC50: −log10 of the molar value.
measure: pEC50

[[record]]
compound = "NCc1cc(=O)[nH]o1 [MSC, muscimol]"
measure = "pEC50"
observed_measurement = 1.90


---

target: GABAA receptor α1β2γ2L (β2 subunit) (Rattus norvegicus, UniProt P62813+P63138); construct: recombinant α1β2γ2L receptor in HEK293 cells; with GABAA receptor α1 and γ2L subunits; assay: whole-cell patch-clamp dose-response
Sequence (P63138 26-474): as the sequence (P63138 26-474 E179C) above, with C154E counted along it
Sequence (P62813 28-455): as the sequence (P62813 28-455) above
Sequence (P18508 39-466 partner): as the sequence (P18508 39-466 partner) above
measure: EC50 (µM)

[[record]]
smiles_record = "NCc1cc(=O)[nH]o1"
target_or_system = "GABAA receptor α1β2γ2L (β2 subunit) (Rattus norvegicus, UniProt P62813+P63138)"
observed_measurement = 9

